The origin of these recorded values is patent US5703087A.

Experiment: Catalepsy in rats (vertical wire mesh)
Conditions: rat, in vivo, 1-6 hours, sc
Recorded ED50 at 6 h for the following molecules

>>> result("CC1(C)C(=O)NC(=O)N1CCN1CCC(c2cn(-c3ccc(F)cc3)c3ccc(Cl)cc23)CC1 [Compound 10]")
"> 30 µmol/kg"
>>> result("COC1CNC(=O)N1CCN1CCC(c2cn(-c3ccc(F)cc3)c3ccc(Cl)cc23)CC1 (centres unmarked) [Compound 3]")
"17 µmol/kg"
>>> result("O=C1NC(O)C(=O)N1CCN1CCC(c2cn(-c3ccc(F)cc3)c3ccc(Cl)cc23)CC1 (centres unmarked) [Compound 7a]")
"> 42 µmol/kg"
>>> result("O=C1NCC2(CCCC2)N1CCN1CCC(c2cn(-c3ccc(F)cc3)c3ccc(Cl)cc23)CC1 [Compound 13]")
"> 40 µmol/kg"

Switching to the query record.
Fill in ED50 at 6 h for record [2H]C1([2H])CN(CCN2CCC(c3cn(-c4ccc(F)cc4)c4ccc(Cl)cc34)CC2)C(=O)N1 [Compound 5]
> 45 µmol/kg
